Target: Serine/threonine-protein kinase pim-3 (Homo sapiens, UniProt Q86V86)
Test: Inhibition of PIM3 (unknown origin) by FRET based Z-LYTE kinase assay
The reader will find reported pIC50 values listed item by item below.
Notebook: values listed as pIC50 are -log10 of the concentration (mol/L).

Sample records with pIC50:
Problem: Quick check: pIC50 of Cc1ccc(-c2cncc(NCCN(C)C)n2)cc1CC1SC(=O)NC1=O (stereo not drawn) ?
Result: 8.22

Problem: Also need CCOc1cc(/C=C2\SC(=S)NC2=O)ccc1O , thanks.
Result: 6.77

---
Problem: Quick check: pIC50 of CN1CCN(c2ccc(-n3cnc4ccc(/C=C5\SC(=S)NC5=O)cc43)cc2)CC1 ?
Result: 5.19

###

Tested on: MV4-11
Assay: Antiproliferative activity against human MV4-11 cells assessed as inhibition of cell growth incubated for 72 hrs by Celltiter-glo assay
Format: functional, cell-based
Details: MV4-11, 72 h
VALUE KIND: pIC50
Notebook: values listed as pIC50 are -log10 of the concentration (mol/L).

Problem: Quick check: pIC50 of Cc1nc2cccc3c2nc1N[C@H](C)/C=C\C[C@H]1CNC(=O)c2cc-3[nH]c21 ?
Result: 4.45

###

The reader will find reported IC50 values listed item by item below.
Molecular target: Serine/threonine-protein kinase pim-2 (Homo sapiens, UniProt Q9P1W9)
Assay: Inhibition of human full length-His6 tagged PIM2 (1 to 311 residues) expressed in Escherichia coli BL21 (DE3) assessed as inhibition constant using RSRHSSYPAGT as peptide substrate incubated for 10 mins in presence of [gamma-32P]ATP by radiometric scintillation assay
Answer format: numeric, nM implied, no suffix.

Problem: Quick check: IC50 of Cc1cccc(-c2c(-c3cccc(OC(F)(F)F)c3)cc3n2[C@@H](CCN)CNC3=O)c1 ?
Result: 25000

Problem: Also need COc1ccc(/C=C/C(=O)CC2(O)C(=O)Nc3cc(Br)ccc32)cc1 (centres undefined) , thanks.
Result: 2460

Problem: Also need COc1ccc(/C=C/C(/C=C2/C(=O)Nc3cc(Br)ccc32)=N/O)cc1 , thanks.
Result: 220

Problem: Also need COc1ccc(/C=C/C(=O)/C=C2/C(=O)Nc3cc(Br)ccc32)cc1 , thanks.
Result: 410

###

Test: Inhibition of PI3K (unknown origin)
Design: species or system Homo sapiens
VALUE KIND: IC50 (nM)
Answer format: numeric, nM implied, no suffix.

Problem: Quick check: IC50 of COc1ncc2cc1NS(=O)(=O)c1ccc(F)c(c1)C(=O)NCC1=CC=C(S1)c1ncnc3c1SC2=C3C ?
Result: 0.13

Read the next record carefully.
Problem: Quick check: IC50 of COc1ncc2cc1NS(=O)(=O)c1cccc(c1)C(=O)NCc1cccc(c1)-c1ncnc3c1SC2=C3 ?
Result: 16.8

###

Molecular target: Serine/threonine-protein kinase pim-3 (Homo sapiens)
Assay: Inhibition of N-terminal GST-tagged full length human PIM3 (1 to 326 residues) expressed in baculovirus expression system using S6K2 peptide as substrate at 1 uM in presence of ATP by Mobility shift assay
VALUE KIND: IC50 (nM)
Answer format: numeric, nM implied, no suffix.

Sample records with IC50:
Problem: Quick check: IC50 of COc1ccc(/C=C/C(=O)/C=C2/C(=O)Nc3cc(Br)ccc32)cc1 ?
Result: 300

Problem: Also need COc1ccc(/C=C/C(/C=C2/C(=O)Nc3cc(Br)ccc32)=N/O)cc1 , thanks.
Result: 360

Read the next record carefully.
Problem: Quick check: IC50 of COc1ccc(/C=C/C(=O)CC2(O)C(=O)Nc3cc(Br)ccc32)cc1 (stereo not drawn) ?
Result: 1740

###

Biological target: Serine/threonine-protein kinase mTOR (Homo sapiens, UniProt P42345)
Test: Inhibition of mTOR (unknown origin)
VALUE KIND: pIC50
Notebook: values listed as pIC50 are -log10 of the concentration (mol/L).

Problem: Quick check: pIC50 of COc1ncc2cc1NS(=O)(=O)c1ccc(F)c(c1)C(=O)NCC1=CC=C(S1)c1ncnc3c1SC2=C3C ?
Result: 4.13

###

// Serine/threonine-protein kinase pim-3 (Homo sapiens, UniProt Q86V86) pIC50 records
Notebook: values listed as pIC50 are -log10 of the concentration (mol/L).

Sample records with pIC50:
Problem: Quick check: pIC50 of CC(C)(O)[C@H]1CC[C@H](Nc2ccc3ncc(-c4cccc(C(F)(F)F)c4)n3n2)CC1 [NUVISERTIB] ?
Result: 7.38

Problem: Also need C[C@@H]1CCCN(c2c(/C=C3\SC(=O)NC3=O)cccc2-c2ccccc2)C1 , thanks.
Result: 8.52

---
Problem: Quick check: pIC50 of CC(C)n1c(C2CCNCC2)nc2c([N+](=O)[O-])c(Br)c(Br)cc21 [DAPOLSERTIB] ?
Result: 8.52

###

Target: Serine/threonine-protein kinase pim-1 (Homo sapiens)
Assay: Inhibition of human full length-His6 tagged PIM1 (1 to 312 residues) expressed in Escherichia coli BL21 (DE3) using RSRHSSYPAGT as peptide substrate incubated for 10 mins in presence of [gamma-32P]ATP by radiometric scintillation assay
The reader will find reported pIC50 values listed item by item below.
Notebook: values listed as pIC50 are -log10 of the concentration (mol/L).

Sample records with pIC50:
Problem: Quick check: pIC50 of COc1ccc(/C=C/C(=O)/C=C2/C(=O)Nc3cc(Br)ccc32)cc1 ?
Result: 6.43

Problem: Also need COc1ccc(/C=C/C(=O)CC2(O)C(=O)Nc3cc(Br)ccc32)cc1 (stereo not given) , thanks.
Result: 5.79

Problem: Also need Cc1cccc(-c2c(-c3cccc(OC(F)(F)F)c3)cc3n2[C@@H](CCN)CNC3=O)c1 , thanks.
Result: 8.15

---
Problem: Quick check: pIC50 of CN1CCN(C[C@@H](NC(=O)CC2CNC(=O)c3cc(-c4cccc(Cl)c4)cn32)C2CCCCC2)CC1 (stereo not given in full) ?
Result: 8.82

Problem: Also need COc1ccc(/C=C/C(/C=C2/C(=O)Nc3cc(Br)ccc32)=N/O)cc1 , thanks.
Result: 6.33

###

Molecular target: Serine/threonine-protein kinase pim-1 (Homo sapiens, UniProt P11309)
Assay: Inhibition of human PIM1 using KKRNRTLTK as substrate in presence of [gamma-33P]-ATP by hotspot kinase assay
The reader will find reported IC50 values listed item by item below.
Answer format: numeric, µM implied, no suffix.

Sample records with IC50:
Problem: Quick check: IC50 of Fc1cncc(-c2ccc3[nH]c4ncnc(N[C@H]5CC[C@H](N6CCOCC6)CC5)c4c3c2)c1 ?
Result: 0.0046

Problem: Also need N#Cc1c(-c2ccccc2)cc(-c2ccccc2)nc1OCCCC(=O)NO , thanks.
Result: 0.344

Problem: Also need N#Cc1c(-c2ccccc2)cc(-c2ccccc2)nc1OCCCCC(=O)NO , thanks.
Result: 0.365

Problem: Also need N#Cc1c(-c2ccccc2)cc(-c2ccccc2)nc1OCC(=O)NO , thanks.
Result: 0.427

---
Problem: Quick check: IC50 of CCc1ccc(NC(=O)c2sc3nc(-c4ccc(OC)c(OC)c4)cc(-c4ccc(O)c(O)c4)c3c2N)cc1 ?
Result: 9.39

###

Target: Serine/threonine-protein kinase pim-1 (Homo sapiens)
Experiment: Inhibition of human PIM1 by ADP Glo luminescent assay
VALUE KIND: IC50 (nM)
Answer format: numeric, nM implied, no suffix.

Problem: Quick check: IC50 of Cc1nc2cccc3c2nc1N[C@H](C)/C=C\C[C@H]1CNC(=O)c2cc-3[nH]c21 ?
Result: 130

###

Molecular target: Prostaglandin G/H synthase 2 (Homo sapiens)
Sequence (P35354 whole entry): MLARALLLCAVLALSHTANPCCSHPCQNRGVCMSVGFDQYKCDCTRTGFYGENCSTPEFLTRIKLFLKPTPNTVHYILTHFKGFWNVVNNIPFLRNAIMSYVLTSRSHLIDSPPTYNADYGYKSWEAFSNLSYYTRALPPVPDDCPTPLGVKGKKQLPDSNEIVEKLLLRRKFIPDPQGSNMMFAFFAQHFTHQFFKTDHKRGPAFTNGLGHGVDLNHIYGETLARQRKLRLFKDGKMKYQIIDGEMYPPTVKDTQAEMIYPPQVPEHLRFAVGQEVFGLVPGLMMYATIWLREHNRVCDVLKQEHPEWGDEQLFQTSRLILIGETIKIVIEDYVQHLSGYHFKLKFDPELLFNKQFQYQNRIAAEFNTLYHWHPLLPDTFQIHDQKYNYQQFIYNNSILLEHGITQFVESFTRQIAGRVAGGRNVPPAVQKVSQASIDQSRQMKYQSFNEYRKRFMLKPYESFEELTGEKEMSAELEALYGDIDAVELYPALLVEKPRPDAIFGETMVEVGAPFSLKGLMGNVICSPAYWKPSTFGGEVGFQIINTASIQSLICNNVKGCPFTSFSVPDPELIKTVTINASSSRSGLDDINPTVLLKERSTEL
The reader will find reported IC50 values listed item by item below.
Answer format: numeric, nM implied, no suffix.

Sample records with IC50:
Problem: Quick check: IC50 of COc1ccc(N2C(=O)C(CC(=O)O)S/C2=N/N=C/c2c(C)ccc(C(C)C)c2O)cc1 (stereo not drawn) ?
Result: 37

Problem: Also need Cc1ccc(C(C)C)c(O)c1/C=N/N=C1/SC(CC(=O)O)C(=O)N1c1cccc2ccccc12 (stereo not drawn) , thanks.
Result: 9110

Read the next record carefully.
Problem: Quick check: IC50 of Cc1ccc(C(C)C)c(O)c1/C=N/N=C1NC(=O)C(CC(=O)O)S1 (stereo not drawn) ?
Result: 91
